- Tested on: human PKK mRNA
- protocol text: Antisense inhibition of human PKK mRNA in HepaRG cells, 1,000 nM, MOE/deoxy/cEt oligonucleotides (Example 3)
- Assay type: cell-based
- measurement parameters: Table 20; HepaRG cells, electroporation with 1,000 nM antisense oligonucleotide, approximately 24 hours; PKK mRNA by RT-PCR (RTS3454), relative to untreated control cells
Strand notation (5' to 3'): a small letter for the sugar, then the base; units joined by * are phosphorothioate-linked, units joined directly phosphodiester-linked; [ ] holds rarer units or linkages, { } end groups; capitals alone tell only the bases. e = 2'-O-(2-methoxyethyl) (MOE); k = constrained ethyl (cEt); [5mC] = 5-methylcytosine; d = 2'-deoxy (DNA)
# % inhibition values compiled below
Could you give me the number in %? Just the number is fine.

A selection of reference data follows.
| substance | % inhibition [%] |
| --- | --- |
| 547919 (eG*eA*kA*d[5mC]*d[5mC]*d[5mC]*dT*dG*dG*d[5mC]*dA*dA*d[5mC]*kA*kT*e[5mC]; antisense) [compound 547919] | 41 |
| 547901 (e[5mC]*eT*kG*dT*dA*d[5mC]*dT*dT*dT*dA*dA*dT*dA*kG*kG*e[5mC]; antisense) [compound 547901] | 77 |

Next item in the queue.
QUERY: Report % inhibition for 547866 (antisense eT*eT*kA*dA*dA*dA*dT*dT*dG*dA*d[5mC]*dT*d[5mC]*k[5mC]*kT*e[5mC]) [compound 547866] tested on human PKK mRNA.
RESULT: 46

###

# percent inhibition of PKK mRNA, 1.00 μM values compiled below
- Test system: human PKK mRNA
- protocol text: Dose-dependent antisense inhibition of human PKK in HepaRG cells, 0.11-3.00 uM (Example 6)
- Format: cell-based
- measurement parameters: electroporation, 1.00 μM, approx. 16 hours, relative to untreated control cells
Strand notation (5' to 3'): a small letter for the sugar, then the base; units joined by * are phosphorothioate-linked, units joined directly phosphodiester-linked; [ ] holds rarer units or linkages, { } end groups; capitals alone tell only the bases. e = 2'-O-(2-methoxyethyl) (MOE); k = constrained ethyl (cEt); [5mC] = 5-methylcytosine; d = 2'-deoxy (DNA)
Could you give me the number in %? Just the number is fine.

A selection of reference data follows.
| substance | target | percent inhibition of PKK mRNA, 1.00 μM, % |
| --- | --- | --- |
| 548348 (antisense eT*eG*kA*dG*dT*dG*dA*dT*dG*d[5mC]*d[5mC]*dT*dT*k[5mC]*k[5mC]*eA) [compound 548348] | human PKK mRNA | 67 |
| 548343 (antisense eT*eA*kG*dT*dG*dA*dT*dA*dA*dG*dA*dG*d[5mC]*kT*kG*eG) [compound 548343] | human PKK mRNA | 88 |
| 548558 (antisense eA*eA*k[5mC]*dA*dT*dT*dG*dT*dG*dT*dA*dG*d[5mC]*kT*kG*e[5mC]) [compound 548558] | human PKK mRNA | 78 |
| 548004 (eA*eG*kT*dA*dA*d[5mC]*d[5mC]*dA*dG*dA*dG*d[5mC]*dT*k[5mC]*k[5mC]*e[5mC]; antisense) [compound 548004] | human PKK mRNA | 80 |
| 547857 (antisense e[5mC]*eT*k[5mC]*dA*dT*dA*dT*d[5mC]*dA*dA*d[5mC]*dT*d[5mC]*k[5mC]*kT*eT) [compound 547857] | human PKK mRNA | 77 |

QUERY: Report percent inhibition of PKK mRNA, 1.00 μM for 548667 (antisense eT*eG*kG*d[5mC]*dA*dA*dG*d[5mC]*dT*dA*d[5mC]*d[5mC]*dT*kT*k[5mC]*eT) [compound 548667] tested on human PKK mRNA.
RESULT: 73

QUERY: Report percent inhibition of PKK mRNA, 1.00 μM for 548170 (eA*eG*kT*dT*dG*d[5mC]*dG*dA*d[5mC]*d[5mC]*dT*d[5mC]*dG*k[5mC]*kA*eT; antisense) [compound 548170] tested on human PKK mRNA.
RESULT: 26

QUERY: Report percent inhibition of PKK mRNA, 1.00 μM for 547946 (eG*eA*kA*d[5mC]*dT*dT*dG*dG*dT*dG*dT*dG*d[5mC]*k[5mC]*kA*e[5mC]; antisense) [compound 547946] tested on human PKK mRNA.
RESULT: 74

QUERY: Report percent inhibition of PKK mRNA, 1.00 μM for 548155 (e[5mC]*eG*kT*dG*d[5mC]*dT*dG*dA*dA*dA*dG*d[5mC]*dG*kG*kG*e[5mC]; antisense) [compound 548155] tested on human PKK mRNA.
RESULT: 70

QUERY: Report percent inhibition of PKK mRNA, 1.00 μM for 547979 (antisense eG*eT*k[5mC]*dT*d[5mC]*dT*dT*dG*dG*d[5mC]*dA*dA*dA*k[5mC]*kA*eT) [compound 547979] tested on human PKK mRNA.
RESULT: 94
